Recorded Uptake in Liver values for a group of compounds are listed next.
- assay.name: in vivo
- Design: species or system Balb/c mice
- study.conditions: Balb/c, mouse, iv, 2 h
Numbered stars: 1 amine (or outer) side, 2 acyl side, 3 side chain; on linkers, the order of the positions; unused ones are H or OH. Square brackets hold non-standard residues; d marks the D form. Peptide text beside a SMILES is read from it. * marks the point of attachment. DOTA = O=C(O)CN1CCN(CC(=O)O)CCN(CC(=O)*)CCN(CC(=O)O)CC1; Cha = N[C@@H](CC1CCCCC1)C(=O)O; X1 = O=C(CCC(=O)[*:2])CN[*:1]; 4Abz = Nc1ccc(C(=O)O)cc1; Nle = CCCC[C@H](N)C(=O)O; Ahx = NCCCCCC(=O)O
measured.property: Uptake in Liver

| compound | reported |
| --- | --- |
| CCCC[C@H](NC(=O)[C@H](Cc1c[nH]cn1)NC(=O)[C@H](CC1CCCCC1)NC(=O)[C@@H](NC(=O)[C@H](C)NC(=O)[C@H](Cc1c[nH]c2ccccc12)NC(=O)[C@H](CCC(N)=O)NC(=O)[C@H](CS)NC(=O)CNC(=O)CNC(=O)CCC(=O)CNC(=O)CN1CCN(CC(=O)O)CCN(CC(=O)O)CCN(CC(=O)O)CC1)C(C)C)C(=O)N[C@@H](CCSC)C(N)=O [^68Ga-DOTA-ALA-BN Cyclen, metal not drawn] ({DOTA}-[X1]GGCQWAV[Cha]H[Nle]M-NH2) | 1.75 ± 0.26 %ID/g |
| CCCC[C@H](NC(=O)[C@H](Cc1c[nH]cn1)NC(=O)[C@H](CC1CCCCC1)NC(=O)[C@@H](NC(=O)[C@H](C)NC(=O)[C@H](Cc1c[nH]c2ccccc12)NC(=O)[C@H](CCC(N)=O)NC(=O)[C@H](CS)NC(=O)CNC(=O)CNC(=O)c1ccc(NC(=O)CN2CCN(CC(=O)O)CCN(CC(=O)O)CCN(CC(=O)O)CC2)cc1)C(C)C)C(=O)N[C@@H](CCSC)C(N)=O [^68Ga-DOTA-Abz-BN Tris-, metal not drawn] ({DOTA-4Abz}-GGCQWAV[Cha]H[Nle]M-NH2) | 0.91 ± 0.15 %ID/g |
| CCCC[C@H](NC(=O)[C@H](Cc1c[nH]cn1)NC(=O)[C@H](CC1CCCCC1)NC(=O)[C@@H](NC(=O)[C@H](C)NC(=O)[C@H](Cc1c[nH]c2ccccc12)NC(=O)[C@H](CCC(N)=O)NC(=O)[C@H](CS)NC(=O)CNC(=O)CNC(=O)CCC(=O)CNC(=O)CN1CCN(CC(=O)O)CCN(CC(=O)O)CCN(CC(=O)O)CC1)C(C)C)C(=O)N[C@@H](CCSC)C(N)=O [^68Ga-DOTA-ALA-BN Tris-, metal not drawn] ({DOTA}-[X1]GGCQWAV[Cha]H[Nle]M-NH2) | 0.86 ± 0.17 %ID/g |
| CCCC[C@H](NC(=O)[C@H](Cc1c[nH]cn1)NC(=O)[C@H](CC1CCCCC1)NC(=O)[C@@H](NC(=O)[C@H](C)NC(=O)[C@H](Cc1c[nH]c2ccccc12)NC(=O)[C@H](CCC(N)=O)NC(=O)[C@H](CS)NC(=O)CNC(=O)CNC(=O)CCCCCNC(=O)CN1CCN(CC(=O)O)CCN(CC(=O)O)CCN(CC(=O)O)CC1)C(C)C)C(=O)N[C@@H](CCSC)C(N)=O [^68Ga-DOTA-Ahx-BN Tris-, metal not drawn] ({DOTA-Ahx}-GGCQWAV[Cha]H[Nle]M-NH2) | 0.53 ± 0.09 %ID/g |
